Every entry's value here was drawn from patent US20250057819A1.

pEC50 reference
- System: rHCoVs-OC43
- METHOD: organism not typed
- Type: cell-based
- CONDITION: drug alone; HRT-18 cells, MOI 0.025, 48 h treatment, decrease of Rluc; read-out: EC50
pEC50: −log10 of the molar value. Structures can show the parent of a compound that is named as a salt.

# COMPOUND, EXPERIMENTAL TARGET, MODIFIER SIGN, pEC50
measured = [
    ("CN1CCN(CCCN2c3ccccc3Sc3ccc(C(F)(F)F)cc32)CC1 [Trifluoperazine dihydrochloride]", "rHCoVs-OC43", "=", 5.54),
    ("CN(C)[C@@H](CCOc1cccc2ccccc12)c1ccccc1 [Dapoxetine hydrochloride]", "rHCoVs-OC43", "=", 5.33),
    ("CCCCCCCCCCC[C@@H](C[C@@H]1OC(=O)[C@H]1CCCCCC)OC(=O)[C@H](CC(C)C)NC=O", "rHCoVs-OC43", "=", 5.14),
    ("CCCCCCCCCC(=O)OC1(c2ccc(Cl)cc2)CCN(CCCC(=O)c2ccc(F)cc2)CC1 [Haloperidol decanoate]", "rHCoVs-OC43", "<", 5.00),
]

---

- System: rHCoVs-OC43
- METHOD: organism not typed
- Format: cell-based
- CONDITION: drug alone; HRT-18 cells, MOI 0.025, 48 h treatment, decrease of Rluc; read-out: EC50
Where a name gives a salt, the structure may show the parent alone.
Threshold 1000 nM. EC50 below it: TRUE. EC50 at it or above: FALSE.

# COMPOUND, QUALITATIVE LABEL
records = [
    ("Cn1cc(C2=C(c3cn(C4CCN(Cc5ccccn5)CC4)c4ccccc34)C(=O)NC2=O)c2ccccc21 [Enzastaurin hydrochloride]", "FALSE"),
    ("CN(C)CCOc1ccc(/C(=C(/CCCl)c2ccccc2)c2ccccc2)cc1 [Toremifene Citrate]", "FALSE"),
    ("COc1c(C)c2c(c(O)c1C/C=C(\\C)CCC(=O)OCCN1CCOCC1)C(=O)OC2 [Mycophenolate mofetil]", "TRUE"),
    ("CCCC(=O)O[C@]1(C(=O)CCl)[C@H](C)C[C@@H]2[C@@H]3CCC4=CC(=O)C=C[C@]4(C)[C@]3(F)C(=O)C[C@@]21C [Clobetasone butyrate]", "FALSE"),
    ("C[C@@H]1O[C@@H](O[C@H]2C[C@@H](O)[C@]3(CO)[C@H]4[C@H](O)C[C@]5(C)[C@@H](C6=CC(=O)OC6)CC[C@]5(O)[C@@H]4CC[C@]3(O)C2)[C@H](O)[C@H](O)[C@H]1O [Ouabain]", "TRUE"),
    ("CN(C)CC/C=C1/c2ccccc2Sc2ccc(Cl)cc21 [Chlorprothixene]", "FALSE"),
]

---

- METHOD: Cell viability assay (MTT) in HRT-18 cells
- CONDITION: human, CC50 (μM), drug alone; HRT-18 cells, 48 h treatment, MTT
Structures can show the parent of a compound that is named as a salt.
CC50 at 48 h reference

# COMPOUND, CC50 at 48 h
measured = [
    ("Cc1ccc(Sc2ccccc2N2CCNCC2)c(C)c1 [Vortioxetine hydrobromide]", "> 10 µM"),
    ("C=CC[C@@H]1/C=C(\\C)C[C@H](C)C[C@H](OC)[C@H]2O[C@@](O)(C(=O)C(=O)N3CCCC[C@H]3C(=O)O[C@H](/C(C)=C/[C@@H]3CC[C@@H](O)[C@H](OC)C3)[C@H](C)[C@@H](O)CC1=O)[C@H](C)C[C@@H]2OC [Tacrolimus hydrate]", "> 10 µM"),
    ("COC(=O)C1=C(C)NC(C)=C(C(=O)OCCN2CCN(C(c3ccccc3)c3ccccc3)CC2)C1c1cccc([N+](=O)[O-])c1 (stereo not drawn) [Manidipine dihydrochloride]", "> 10 µM"),
]

---

- METHOD: Cell viability assay (MTT) in Calu3 cells
- Type: cell-based, Human
- CONDITION: human, Calu3 cells, Calu3 (C), read-out: SARS-CoV-2 CC50
Structures can show the parent of a compound that is named as a salt.
REPORTED ENDPOINT: CC50 at 48 h

# COMPOUND, MEASURED VALUE
records = [
    ("CCN(CC)CCOc1ccc2c(c1)C(=O)c1cc(OCCN(CC)CC)ccc1-2 [Tilorone dihydrochloride]", "> 10 µM"),
    ("CCC(CC)COC(=O)[C@H](C)N[P@](=O)(OC[C@H]1O[C@@](C#N)(c2ccc3c(N)ncnn23)[C@H](O)[C@@H]1O)Oc1ccccc1", "> 10 µM"),
    ("Cc1c(O)cccc1C(=O)N[C@@H](CSc1ccccc1)[C@H](O)CN1C[C@H]2CCCC[C@H]2C[C@H]1C(=O)NC(C)(C)C [Nelfinavir mesylate]", "> 10 µM"),
]

---

- Test system: SARS-CoV-2
- METHOD: Drug tests in SARS-CoV-2 model, Calu3 cells, viral titration by plaque assay in Vero E6
- CONDITION: read-out: SARS-CoV-2 EC50; Calu3 (C), MOI 0.05, 48 h treatment
Where a name gives a salt, the structure may show the parent alone.
EC50 reference
REPORTED ENDPOINT: EC50 (nM)

# COMPOUND, REPORTED ENDPOINT, MEASURED VALUE
measured = [
    ("CCC(CC)COC(=O)[C@H](C)N[P@](=O)(OC[C@H]1O[C@@](C#N)(c2ccc3c(N)ncnn23)[C@H](O)[C@@H]1O)Oc1ccccc1", "EC50", 4),
    ("Cc1c(O)cccc1C(=O)N[C@@H](CSc1ccccc1)[C@H](O)CN1C[C@H]2CCCC[C@H]2C[C@H]1C(=O)NC(C)(C)C [Nelfinavir mesylate]", "EC50", 110),
    ("CC(C)C(=O)OC[C@H]1O[C@@H](n2cc/c(=N\\O)[nH]c2=O)[C@H](O)[C@@H]1O", "EC50", 35),
    ("CCN(CC)CCOc1ccc2c(c1)C(=O)c1cc(OCCN(CC)CC)ccc1-2 [Tilorone dihydrochloride]", "EC50", 70),
]
